- system: T1, Human ST2 (human, UniProt Q01638 19-328, limits assumed)
- T1 construct: also called human ST2 protein; Interleukin 1 receptor-like 1
- T1 sequence (looked up): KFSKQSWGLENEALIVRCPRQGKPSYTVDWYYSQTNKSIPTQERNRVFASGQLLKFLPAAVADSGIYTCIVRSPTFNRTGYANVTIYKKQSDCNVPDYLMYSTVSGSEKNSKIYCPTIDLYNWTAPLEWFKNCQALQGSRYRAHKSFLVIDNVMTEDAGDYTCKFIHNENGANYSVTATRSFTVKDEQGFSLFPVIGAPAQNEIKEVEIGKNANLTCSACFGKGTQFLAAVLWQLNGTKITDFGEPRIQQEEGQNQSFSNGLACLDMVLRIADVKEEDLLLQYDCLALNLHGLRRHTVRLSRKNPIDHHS
- assay-method-text: SPR (Carterra), antibody immobilized, ST2 analyte
- Experimental: Binding of the reformatted human ST2 antibodies to the human and mouse ST2 proteins was evaluated by surface plasmon resonance (SPR), using a high throughput antibody screening and characterization platform from Carterra (Salt Lake City, Utah).
Property: koff; scope: individual binders
quantity-kind: koff (s⁻¹)

binder="Human ST2 IgG1 Antibody 14 (antibody, V domains shown, IgG1; also called ST2 Antibody 14) VH: QVQLVQSGAEVKKPGSSVKVSCKASGYTFTSYGISWVRQAPGQGLEWMGGIIPIFGTANYAPRFQGRVTITADESTSTAYMELSSLRSEDTAVYYCARDTVSMDVWGQGTTVTVSS VL: DIVMTQSPLSLPVTPGEPASISCRSSQSLLHSNGYNYLDWYLQKPGQSPQLLIYDASNLETGVPDRFSGSGSGTDFTLKISRVEAEDVGVYYCMQGAHWPPTFGQGTKLEIKR" unit_name=s⁻¹ observed=0.017
binder="Human ST2 IgG1 Antibody 95 (antibody, V domains shown, IgG1; also called ST2 Antibody 95) VH: QVQLVQSGAEVKKPGSSVKVSCKASGYTFTSYGISWVRQAPGQGLEWMGGIIPIFGTANYAQKFQGRVTITADESTSTAYMELSSLRSEDTAVYYCARVMARRDGYNFKGGWYFDLWGRGTLVTVSS VL: DIVMTQSPLSLPVTPGEPASISCRSSQSLLHSNGYNYLDWYLQKPGQSPQLLIYAASSLQSGVPDRFSGSGSGTDFTLKISRVEAEDVGVYYCMQALETPPTFGQGTKLEIKR" unit_name=s⁻¹ observed=0.0086
binder="Human ST2 IgG1 Antibody 73 (antibody, V domains shown, IgG1; also called ST2 Antibody 73) VH: EVQLLESGGGLVQPGGSLRLSCAASGFAFSSHWMHWVRQAPGKGLEWVAVISYDGSNKYYADSVKGRFTISRDNSKNTLYLQMNSLRAEDTAVYYCARDRGMIDYWGQGTLVTVSS VL: DIQMTQSPSSLSASVGDRVTITCRASQGIGSWLAWYQQKPGKAPKLLIHAATKLQTGVPSRFSGSGSGTDFTLTISSLQPEDFATYYCQQSYSTPFTFGPGTKVDIKR" unit_name=s⁻¹ observed=0.085
